All values here come from ChEMBL document CHEMBL1131063.

- Measured on: Phospholipase A2 (Apis mellifera) (UniProt P00630)
- Sequence (P00630 whole entry): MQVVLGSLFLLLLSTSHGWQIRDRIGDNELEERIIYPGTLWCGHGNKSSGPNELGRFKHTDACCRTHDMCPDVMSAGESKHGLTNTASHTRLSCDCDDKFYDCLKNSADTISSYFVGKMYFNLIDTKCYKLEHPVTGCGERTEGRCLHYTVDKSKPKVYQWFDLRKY
- Procedure summary: Inhibitory activity against bee secretory Phospholipase A2 enzyme when pre-incubated with Tris buffer for 5 minutes
Each item that follows carries a reported inhibition.

{"Compound": "CC(C)=CCC/C(C)=C/CC/C(C)=C/CC1=CCC(C2=CC(=O)OC2O)OC1O (centres undefined)", "Measured on": "Phospholipase A2 (Apis mellifera) (UniProt P00630)", "inhibition [%]": 80.8}
{"Compound": "C=C1CCC[C@H]2[C@](C)(CCC3=CCC(C4=CC(=O)OC4O)OC3)[C@H](C)CC[C@]12C (some centres undefined)", "Measured on": "Phospholipase A2 (Apis mellifera) (UniProt P00630)", "inhibition [%]": 95.4}
{"Compound": "CC(C)=CCC/C(C)=C/CC/C(C)=C/CC1=CCC(C2=CC(=O)OC2O)OC1 (centres undefined)", "Measured on": "Phospholipase A2 (Apis mellifera) (UniProt P00630)", "inhibition [%]": 58.5}
{"Compound": "CC1=C(CC/C(C)=C/CCC2=CC[C@H](C3=CC(=O)O[C@H]3O)O[C@H]2O)C(C)(C)CCC1", "Measured on": "Phospholipase A2 (Apis mellifera) (UniProt P00630)", "inhibition [%]": 42.4}
